Ref: ChEMBL document CHEMBL1155010

- Test Name: Metabolic stability in Sprague-Dawley rat olfactory bulb assessed as drug remaining at 30 MBq after 4 hrs by Radio-HPLC analysis
- Assay type: ADME, tissue-based
- Measurement Setup: read-out: Stability
Value Type: remaining at 4 h (%)

INSERT INTO results (compound_smiles, units_symbol, recorded_result) VALUES
  ('CCN(CC)C(=O)Cc1c(-c2ccc(OCC[18F])cc2)nc2ccc(Cl)cn12', '%', 40),
  ('CCN(CC)C(=O)Cc1c(-c2ccc(OCC[18F])cc2)nn2c(C)cc(C)nc12', '%', 40);
